Just for reference, patent EP4585618A1 is where these values come from.

Please go through the items and note down their koff.
target: T1, His-tagged ILT4 protein extracellular domain: ILT4-His (human, UniProt Q8N423 22-460); assay: SPR (Biacore), antibody captured on Protein A chip, ILT4-His as analyte, 1:1 model
T1 construct: Expressed in 293 cells; also called human ILT4-His protein
T1 sequence (Q8N423 other isoform, or with tags, fused parts or gaps limits assumed): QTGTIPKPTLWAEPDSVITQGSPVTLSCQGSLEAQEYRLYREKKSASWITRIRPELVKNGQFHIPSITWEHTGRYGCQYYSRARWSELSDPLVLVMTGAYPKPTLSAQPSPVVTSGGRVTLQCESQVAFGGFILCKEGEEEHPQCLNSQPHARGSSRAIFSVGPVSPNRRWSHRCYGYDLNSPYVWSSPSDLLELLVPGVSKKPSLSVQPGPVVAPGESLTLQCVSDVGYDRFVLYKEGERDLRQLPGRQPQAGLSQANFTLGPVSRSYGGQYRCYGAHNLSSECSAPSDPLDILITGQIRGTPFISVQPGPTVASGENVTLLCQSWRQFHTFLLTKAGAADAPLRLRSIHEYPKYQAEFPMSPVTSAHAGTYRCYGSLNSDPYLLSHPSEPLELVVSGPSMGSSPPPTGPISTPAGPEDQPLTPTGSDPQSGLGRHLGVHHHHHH
# value in s⁻¹; strip the unit string

[Q] May I ask what koff has been recorded for humanized antibody huP1-D7 (antibody, human IgG4 S228P, kappa, F234A L235A, V domains shown, Full chains; also called P1-D7H1L1) VH: EVQLVQSGAEVKKPGASVKVSCKASGYTFTTYGMNWVRQAPGQGLEWMGWINTYSGVPTYAEDFKGRVTMTTDTSTSTAYMELRSLRSDDTAVYYCARRTDYDGYVMDSWGQGTTVTVSS VL: DIVMTQSPDSLAVSLGERATINCKSSQSLFYSGNQKNYLAWYQQKPGQSPKLLLYWASTRESGVPDRFSGSGSGTDFTLTISSLQAEDVAVYYCQQYFSYPPTFGGGTKVEIKR ?
[A] 0.0103

[Q] May I ask what koff has been recorded for fully human-derived antibody P2m (antibody, human IgG1, kappa, L234A L235A, V domains shown, Full chains) VH: QVQLVQSGAEVKKPGSSVKVSCKASGYTFTSYDISWVRQAPGQGLEWMGGIIPIFGTANYAQKFQGRVTITADESTSTAYMELSSLRSEDTAVYYCTAGIFLATAYWGQGTLVTVSS VL: DIQMTQSPSSMSASVGDRVTISCQASQDIQNYLNWYQQRPGQAPKLLIYDASTLETGVPSRFSGSGSGTYFTLTISSLQPEDVATYYCQQYENVPITFGQGTRLEIKR ?
[A] 8.78e-05

[Q] May I ask what koff has been recorded for humanized antibody huP2-C6 (antibody, human IgG1, kappa, L234A L235A, V domains shown, Full chains; also called P2-C6H7L1) VH: EVQLVQSGAEVKKPGASVKVSCKASGYTFTDYYIHWVRQAPGQGLEWMGYIYPDTGYSGYNQKFKGRVTMTVDKSTSTAYMELRSLRSDDTAVYYCTRRGDYSGVHFDYWGQGTTVTVSS VL: DIVLTQSPDSLAVSLGERATINCRASESVNNYGVGFLHWYQQKPGQPPKLLIYRASTLESGIPDRFSGSGSGTDFTLTISSLQAEDVAVYYCQHSYKDPPWTFGGGTKVEIKR ?
[A] 6.58e-05
